- Assay method text: xn = mol fraction of the nth substance listed
- Protocol conditions: 303 K; 101.33 kPa; x1 = 0.9
Reported endpoint: viscosity (mPa·s)
Your answer is read as mPa·s, so omit the unit and give the number.

// recorded viscosity for Nc1ccccc1 + CC(C)CO : 2.715

// recorded viscosity for Nc1ccccc1 + Cc1cccc(C)c1 : 2.875

// recorded viscosity for Nc1ccccc1 + CCCCO : 2.751

// recorded viscosity for Nc1ccccc1 + CC(C)(C)O : 2.766

// recorded viscosity for Nc1ccccc1 + CCC(C)O : 2.835

----------
- Protocol conditions: 313.15 K; 101.33 kPa
Reported endpoint: viscosity (mPa·s)
Your answer is read as mPa·s, so omit the unit and give the number.

// recorded viscosity for `CCCCOC(=O)c1ccccc1` : 1.73

// recorded viscosity for `NCCN` : 1.08

// recorded viscosity for `CCCC` : 0.143

// recorded viscosity for `Nc1ccccc1` : 2.327
